# Study System: T1, human LAP-TGFB1 Fc fusion (human)
# T1 construct: also called human LAP-TGFβ1-Fc; human LAP-TGFβ-Fc isoform 1
# T1 sequence (chain, as listed by the source limits assumed): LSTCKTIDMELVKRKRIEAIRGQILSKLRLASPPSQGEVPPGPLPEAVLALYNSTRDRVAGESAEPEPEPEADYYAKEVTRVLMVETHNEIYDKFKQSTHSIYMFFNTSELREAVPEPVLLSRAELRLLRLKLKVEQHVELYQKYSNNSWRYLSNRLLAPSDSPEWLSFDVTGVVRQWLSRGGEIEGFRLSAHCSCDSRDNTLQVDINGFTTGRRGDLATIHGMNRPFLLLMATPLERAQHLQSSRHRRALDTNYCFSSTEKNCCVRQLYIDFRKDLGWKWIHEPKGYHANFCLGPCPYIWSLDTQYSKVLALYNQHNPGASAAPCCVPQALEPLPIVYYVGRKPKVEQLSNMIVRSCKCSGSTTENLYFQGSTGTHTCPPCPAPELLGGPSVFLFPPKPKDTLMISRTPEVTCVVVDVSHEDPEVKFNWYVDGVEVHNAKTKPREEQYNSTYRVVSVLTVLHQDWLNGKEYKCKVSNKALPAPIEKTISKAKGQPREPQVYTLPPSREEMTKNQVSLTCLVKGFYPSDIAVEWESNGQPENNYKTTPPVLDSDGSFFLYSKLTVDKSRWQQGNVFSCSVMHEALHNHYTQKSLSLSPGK
# Experiment Description: SPR pH 6.0, antigen captured on Fab 54BLH
Value Kind: Kd
Hey, just the number and the unit after it is fine.

-- ask Please report the recorded Kd for 19BLM (antibody, human IgG1, kappa, L234A L235A, V domains shown, IgG1 L234A L235A D265S/kappa; also called 82BLH; 55BMD) VH: EVQLVQSGAEVKKPGASVKVSCKASGYTFTSYDMHWVRQAPGQGLEWMGRIDPQSGGIKYAQKFQGRATLTVDTSTSTAYMELSRLRSDDTAVYYCARYDHGGYFDVWGQGTLVTVSS VL: DIQMTQSPSSLSASVGDRVTITCRASQDIYNYLNWYQQKPGKAVKLLIYYTSYLETGVPSRFSGSGSGTDYTLTISSLQPEDFATYFCQQGDTLPWTFGQGTKLEIKR .
-- reply 3.43 nM

-- ask Please report the recorded Kd for 16BLM (antibody, human IgG1, kappa, L234A L235A, V domains shown, IgG1 L234A L235A D265S/kappa; also called 79BLH; 52BMD) VH: EVQLVQSGAEVKKPGASVKVSCKASGYTFTSYDMHWVRQAPGQGLEWMGRIDPQSGGIKYAQKFQGRATLTVDTSTSTAYMELSRLRSDDTAVYYCARWDYGGYFDVWGQGTLVTVSS VL: DIQMTQSPSSLSASVGDRVTITCRASQDIYNYLNWYQQKPGKAVKLLIYYTSVLETGVPSRFSGSGSGTDYTLTISSLQPEDFATYFCQQGDTLPWTFGQGTKLEIKR .
-- reply 0.11 nM

-- ask Please report the recorded Kd for 55BLH (Fab, V domains shown, also called 07BLM Fab) VH: EVQLVQSGAEVKKPGASVKVSCKASGYTFTSYDMHWVRQAPGQGLEWMGRIDPQSGGIRYAQKFQGRATLTVDTSTSTAYMELSRLRSDDTAVYYCARWDYGGYFDVWGQGTLVTVSS VL: DIQMTQSPSSLSASVGDRVTITCRASQDIYSYLNWYQQKPGKAVKLLIYYTSNLETGVPSRFSGSGSGTDYTLTISSLQPEDFATYFCQQGDTLPWTFGQGTKLEIK .
-- reply 0.335 nM

-- ask Please report the recorded Kd for 60BLH (Fab, V domains shown, also called 12BLM Fab) VH: EVQLVQSGAEVKKPGASVKVSCKASGYTFTSYDMHWVRQAPGQGLEWMGRIDPQSGGVKYAQKFQGRATLTVDTSTSTAYMELSRLRSDDTAVYYCARWDYGGYFDVWGQGTLVTVSS VL: DIQMTQSPSSLSASVGDRVTITCRASQDIYNYLNWYQQKPGKAVKLLIYYTSVLETGVPSRFSGSGSGTDYTLTISSLQPEDFATYFCQQGDELPWTFGQGTKLEIK .
-- reply 0.296 nM

src = patent US20230272056A1
